target: GlcNAc(a1-4)Gal(b1-4)GalNAc; experiment: glycan array binding signal (z-score within array); higher = stronger binding; details: glycan notation: IUPAC condensed, linker removed
About 410 targets per protein were measured; listed, in parts, are those with the strongest signals and a random draw of the rest.
measuredParameter: glycan array binding signal (z-score)
Numbers only.

Task: Looking for the measured glycan array binding signal (z-score) of Layilin (Mus musculus), Q8C351 (protein) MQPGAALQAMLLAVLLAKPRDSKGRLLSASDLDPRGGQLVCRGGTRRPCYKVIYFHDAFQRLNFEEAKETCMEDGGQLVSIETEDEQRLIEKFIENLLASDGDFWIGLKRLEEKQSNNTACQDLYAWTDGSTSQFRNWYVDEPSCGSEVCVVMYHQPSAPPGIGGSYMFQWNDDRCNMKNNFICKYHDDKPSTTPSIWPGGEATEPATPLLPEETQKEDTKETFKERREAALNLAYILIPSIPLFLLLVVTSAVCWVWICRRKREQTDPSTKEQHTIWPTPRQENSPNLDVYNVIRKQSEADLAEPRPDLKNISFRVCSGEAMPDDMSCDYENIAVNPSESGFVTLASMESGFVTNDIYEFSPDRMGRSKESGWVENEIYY , can you help?
Result: -1.4
